# System: NCI-H522 lung
# Experimental Details: NCI-60 one-dose screen, 48 h (100 = growth as untreated, 0 = no growth, -100 = all killed)
# Test Context: 10 µM unless noted
This is part of a sample that, as a whole, favours compounds with a hit. Of some 83,000 tested, about 20% had one in any assay.
Readout Name: growth (%)
// return numeric value only (unit: %, not printed)

Tell us which growth value is on record for CCOC(=O)c1c(Nc2ccccc2)nn2c(-c3ccc(OC)cc3)ccnc12
88.1

Tell us which growth value is on record for CC(=O)c1ccc(Nc2nc(SCC(C)C)nc(-c3ccc(F)cc3)c2C#N)cc1
103

Tell us which growth value is on record for COc1cc(OC)c(S(N)(=O)=O)cc1C(=O)/C=C/c1ccc(C)cc1
11

Tell us which growth value is on record for CCO/C=N/C1=C(C#N)C(c2ccc(OC)cc2)c2sc3c(CC)cccc3c2O1 (stereo not given)
18.6

Tell us which growth value is on record for O=c1[nH]c2ccccc2cc1CSc1ccccc1Nc1nccc(-c2ccc(Cl)cc2)n1
97.4
